assay: In vivo pharmacokinetic test: ocular tissue distribution after single ophthalmic administration
Design: species or system pigmented rabbits
experimental-conditions: rabbit, topical, 30 µl of 0.3% solution per eye; aqueous humour; single ophthalmic administration (30 µl) of 0.3% solution

compound	Tmax, h
CO/N=C1\CN(c2nc3c(cc2F)c(=O)c(C(=O)O)cn3C2CC2)CC1CN (racemic)	2

* * *

assay: In vivo pharmacokinetic test: ocular tissue distribution after single ophthalmic administration
Design: species or system pigmented rabbits
experimental-conditions: rabbit, topical, 30 µl of 0.3% solution per eye; aqueous humour; single administration of 0.3% aqueous solution, healthy eyes

molecule	unit-string	Cmax
CO/N=C1\CN(c2nc3c(cc2F)c(=O)c(C(=O)O)cn3C2CC2)CC1CN (racemic)	ng/mL	26
